- Method Notes: AUC (0 to infinity) in Sprague-Dawley rat 10 mg/kg, po
- Format: ADME, organism-based
- Parameters: dose 10 mg/kg, route oral, time infinity
- Measurement Conditions: plasma
Readout Name: AUC(0-inf) (ng·h/mL)
# output: bare number, implied unit ng·h/mL

// returns reported AUC(0-inf) for input "Cc1ccc(C(=O)NC2CC2)cc1-c1ccc2c(O[C@@H](C)C(F)(F)F)nncc2c1" 21100

// returns reported AUC(0-inf) for input "Cc1ccc(C(=O)NC2CC2)cc1-c1ccc2c(NCCN3CCOCC3)nncc2c1" 39

// returns reported AUC(0-inf) for input "Cc1ccc(C(=O)NC2CC2)cc1-c1ccc2c(-c3ccccc3C)nncc2c1" 2330

// returns reported AUC(0-inf) for input "Cc1ccc(C(=O)NC2CC2)cc1-c1ccc2c(N3CCOC[C@@H]3C)nncc2c1" 7090

// returns reported AUC(0-inf) for input "Cc1ccc(C(=O)NC2CC2)cc1-c1ccc2c(OC(C)C)nncc2c1" 10900

Measured values drawn from ChEMBL document CHEMBL1140163 for this set.
